- Assayed system: Cellular tumor antigen p53 (Homo sapiens)
- Measurement description: nuclear p53 accumulation, HPV+ cells – imaging, p53-positive nuclei imaging, 24 h, 48 h (AID 1508601)
- Run conditions: 24/48 h, Library stock concentration: 400 uM, stronger effect = higher value
Hit rate of the full screen: of about 5,700 compounds, about 85 (1%) were called active. This excerpt belongs to a sample that is enriched for actives.
Experimental readout: p53-positive nuclei, normalised (%)
API: value field is a number in %; no unit string.

**Query** Need p53-positive nuclei, normalised, item CCN1CCN(Cc2ccc(NC(=O)c3ccc(C)c(Oc4ccnc5[nH]ccc45)c3)cc2C(F)(F)F)CC1
**Result** 0.0485

**Query** Need p53-positive nuclei, normalised, item CCCCc1ccc(N=CNO)c(C)c1
**Result** -0.0681

**Query** Need p53-positive nuclei, normalised, item C=CC(=O)N1CCc2ccc(-n3c(=O)ccc4cnc5ccc(-c6cnn(C)c6)cc5c43)cc21
**Result** -0.203

**Query** Need p53-positive nuclei, normalised, item Cn1cc(C2=C(c3cn(CCCSC(=N)N)c4ccccc34)C(=O)NC2=O)c2ccccc21
**Result** -0.08

**Query** Need p53-positive nuclei, normalised, item CC(C)CC(=O)Nc1n[nH]c2c1CN(C(=O)C1CCN(C)CC1)C2(C)C
**Result** 0.409

**Query** Need p53-positive nuclei, normalised, item CC(C)c1nn(-c2c(Cl)cccc2Cl)c2nc(Cc3ccc(OCCO)cc3)[nH]c(=O)c12
**Result** 67

**Query** Need p53-positive nuclei, normalised, item Cc1nc(Nc2n[nH]c3c2CN(C(=O)NC(CN(C)C)c2ccccc2)C3(C)C)c2sccc2n1 (configuration not stated)
**Result** -0.117

**Query** Need p53-positive nuclei, normalised, item O=C1SC(=Cc2ccc(OCc3cccc(B(O)O)c3)cc2)C(=O)N1Cc1ccc(F)cc1
**Result** 0.243

**Query** Need p53-positive nuclei, normalised, item COc1cc(C(=O)NS(=O)(=O)c2ccccc2C)ccc1Cc1cn(C)c2ccc(NC(=O)OC3CCCC3)cc12
**Result** 0.119

**Query** Need p53-positive nuclei, normalised, item Nc1ccccc1NC(=O)c1ccc(CNC(=O)OCc2cccnc2)cc1
**Result** -0.1

**Query** Need p53-positive nuclei, normalised, item CC(C)N(CCCNC(=O)Nc1ccc(C(C)(C)C)cc1)CC1OC(n2cc(Br)c3c(N)ncnc32)C(O)C1O (configuration not stated)
**Result** 0.111

**Query** Need p53-positive nuclei, normalised, item Cc1c(CN2CCN(C(=O)C(C)O)CC2)sc2c(N3CCOCC3)nc(-c3cnc(N)nc3)nc12 (configuration not stated)
**Result** -0.106
